System: SUDIPGIV (diffuse intrinsic pontine glioma line)
Experiment: growth inhibition (% activity, log2 RLU normalised to DMSO / staurosporine); higher = more growth inhibition
Conditions: 33 µM
METRIC NAME: growth inhibition (%)
One number for each entry, in %.

Nc1nc2[nH]cc(CCc3ccc(C(=O)N[C@@H](CCC(=O)O)C(=O)O)cc3)c2c(=O)[nH]1 ... 2.12
O=C(O)Cc1cc(I)c(Oc2ccc(O)c(I)c2)c(I)c1 ... 3.33
O=C[C@H](O)[C@@H](O)[C@H](O)CO ... -0.641
CC(C)c1nc(CN(C)C(=O)N[C@H](C(=O)N[C@@H](Cc2ccccc2)C[C@H](O)[C@H](Cc2ccccc2)NC(=O)OCc2cncs2)C(C)C)cs1 ... -1.31
C=Cc1c(C)c2cc3nc(cc4[nH]c(cc5nc(cc1[nH]2)C(C)=C5CCC(=O)O)c(CCC(=O)OC)c4C)C1(C)C3=CC=C(C(=O)OC)C1C(=O)OC (stereo unspecified) ... -0.469
CCCC(=O)OCOC(=O)C1=C(C)NC(C)=C(C(=O)OC)C1c1cccc(Cl)c1Cl (stereo unspecified) ... 2.85
Cc1cn(C2C=CC(CO)O2)c(=O)[nH]c1=O (stereo unspecified) ... -1.27
COc1ccc(CN2CCN(C(c3ccc(F)cc3)c3ccc(F)cc3)CC2)c(OC)c1OC ... 2.85

Quick request: growth inhibition for each listed item, please.
1. COC(=O)CCc1ccc(OCC(O)CNC(C)C)cc1 (stereo unspecified)
2. CC1(C)O[C@@H]2[C@@H](CO[C@@]3(COS(N)(=O)=O)OC(C)(C)O[C@@H]23)O1
3. CC(C)[N+]1(C)[C@@H]2CC[C@H]1C[C@@H](OC(=O)C(CO)c1ccccc1)C2 (stereo partly specified)

Solution:
-1.21
-3.39
-0.725

Record growth inhibition for all entries; do not skip any.
1. COc1cc2nccc(Oc3ccc(NC(=O)C4(C(=O)Nc5ccc(F)cc5)CC4)cc3)c2cc1OC
2. CCc1cccc2c3c([nH]c12)C(CC)(CC(=O)O)OCC3 (stereo unspecified)
3. CCOC(=O)C1=C(C)NC(C)=C(C(=O)OC)C1c1cccc(Cl)c1Cl (stereo unspecified)
4. O=C(O)c1cn(C2CC2)c2cc(N3CCNCC3)c(F)cc2c1=O
5. Nc1nc2[nH]cnc2c(=S)[nH]1

Solution:
1. 0.288
2. -3.78
3. 3.57
4. -1.7
5. 42.5
